Values from patent US11028095B2

- Assay: Oral pharmacokinetics (plasma, brain, CSF)
- Format: in vivo
- Cond: Sprague Dawley, rat, plasma, po, 10 mg/kg, Sprague Dawley rats, per os, normal saline, read-out: Tmax
Here, each record is paired with measured Tmax data.
Measured metric: Tmax (min)

[[record]]
compound = "C[C@@H](O)[C@H](NC(=O)C1CCC2(CNC2=O)N1)C(N)=O (single isomer, unassigned)"
readout_unit = "min"
measurement = 49.8

[[record]]
compound = "C[C@@H](O)[C@@H](C(N)=O)N1CC2(CCC3(CN([C@H](C(N)=O)[C@@H](C)O)C3=O)N2C(=O)OC(C)(C)C)C1=O (stereo partly drawn)"
readout_unit = "min"
measurement = 49.8

[[record]]
compound = "CC(C)C(=O)N1C(C(=O)N[C@H](C(N)=O)[C@@H](C)O)CCC12CNC2=O (single isomer, unassigned)"
readout_unit = "min"
measurement = 49.8


* * *

- Target desc: NMDAR2B expressing HEK cell membranes (Homo sapiens, UniProt Q05586+Q13224)
- Construct: expressed in transfected cells; host or cells: HEK cells (membrane extract)
- Sequence (Q13224 27-1484, other chains not shown): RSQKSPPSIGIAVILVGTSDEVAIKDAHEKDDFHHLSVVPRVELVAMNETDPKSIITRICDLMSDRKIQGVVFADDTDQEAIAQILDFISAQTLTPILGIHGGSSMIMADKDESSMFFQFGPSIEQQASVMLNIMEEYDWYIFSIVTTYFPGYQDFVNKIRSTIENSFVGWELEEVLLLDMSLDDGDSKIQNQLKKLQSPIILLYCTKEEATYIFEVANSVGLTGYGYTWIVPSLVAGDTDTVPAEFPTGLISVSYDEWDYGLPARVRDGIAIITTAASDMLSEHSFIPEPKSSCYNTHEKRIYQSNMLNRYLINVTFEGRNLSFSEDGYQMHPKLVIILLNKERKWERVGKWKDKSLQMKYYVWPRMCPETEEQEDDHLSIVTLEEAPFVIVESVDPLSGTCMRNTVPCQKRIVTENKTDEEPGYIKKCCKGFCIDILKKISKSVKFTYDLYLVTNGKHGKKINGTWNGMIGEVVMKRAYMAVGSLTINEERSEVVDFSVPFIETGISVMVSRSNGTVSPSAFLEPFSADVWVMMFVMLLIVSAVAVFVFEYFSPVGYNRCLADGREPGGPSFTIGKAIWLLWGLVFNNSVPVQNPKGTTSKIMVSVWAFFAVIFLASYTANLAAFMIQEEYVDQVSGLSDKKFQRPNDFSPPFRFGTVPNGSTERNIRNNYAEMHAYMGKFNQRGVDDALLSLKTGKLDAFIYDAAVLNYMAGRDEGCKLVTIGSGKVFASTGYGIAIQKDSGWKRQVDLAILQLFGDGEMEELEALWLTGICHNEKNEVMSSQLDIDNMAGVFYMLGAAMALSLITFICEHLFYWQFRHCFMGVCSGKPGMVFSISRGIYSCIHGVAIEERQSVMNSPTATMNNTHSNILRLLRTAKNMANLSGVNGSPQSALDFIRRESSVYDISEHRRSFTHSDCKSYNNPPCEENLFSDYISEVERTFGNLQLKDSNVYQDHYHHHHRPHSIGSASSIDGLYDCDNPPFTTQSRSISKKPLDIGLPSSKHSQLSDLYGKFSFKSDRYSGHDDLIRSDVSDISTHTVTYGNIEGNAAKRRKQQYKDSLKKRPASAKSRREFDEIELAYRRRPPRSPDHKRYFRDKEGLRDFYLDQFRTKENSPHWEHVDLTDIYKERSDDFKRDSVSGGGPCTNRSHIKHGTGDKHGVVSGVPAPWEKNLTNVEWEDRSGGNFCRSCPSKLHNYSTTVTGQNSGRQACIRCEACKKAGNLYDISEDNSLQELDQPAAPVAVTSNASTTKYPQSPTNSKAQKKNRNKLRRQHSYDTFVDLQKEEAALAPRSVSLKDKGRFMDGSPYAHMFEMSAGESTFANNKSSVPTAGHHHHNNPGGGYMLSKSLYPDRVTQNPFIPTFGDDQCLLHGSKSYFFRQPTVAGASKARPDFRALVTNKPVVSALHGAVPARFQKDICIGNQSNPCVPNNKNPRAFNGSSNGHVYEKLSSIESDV
- Assay: NMDAR agonist assay, [3H]MK-801 binding, NMDAR2B
- Format: biochemical
- Cond: 50 μM glutamate; [3H]MK-801 binding; read-out: NMDAR2B log EC50 (converted)
Measured metric: EC50

[[record]]
compound = "NC(=O)C1CCC2(CNC2=O)N1Cc1ccccc1 (single isomer, unassigned)"
target_desc = "NMDAR2B expressing HEK cell membranes (Homo sapiens, UniProt Q05586+Q13224)"
measurement = "< 1 nM"

[[record]]
compound = "O=C1NCC12CN(Cc1ccccc1)C1(CNC1=O)C2 (single isomer, unassigned) [DQ]"
target_desc = "NMDAR2B expressing HEK cell membranes (Homo sapiens, UniProt Q05586+Q13224)"
measurement = "< 1 nM"

[[record]]
compound = "CNC(=O)[C@@H](NCC1CCC2(CNC2=O)N1C(=O)OC(C)(C)C)[C@@H](C)O (stereo partly drawn)"
target_desc = "NMDAR2B expressing HEK cell membranes (Homo sapiens, UniProt Q05586+Q13224)"
measurement = "> 100 nM"

[[record]]
compound = "COc1ccc(CN2C[C@@]3(C[C@H](C(N)=O)CN3CC(C)C)C2=O)cc1"
target_desc = "NMDAR2B expressing HEK cell membranes (Homo sapiens, UniProt Q05586+Q13224)"
measurement = "< 1 nM"

[[record]]
compound = "COc1ccc(CN2CC3(CC(N[C@H](C(N)=O)[C@@H](C)O)CN3C(=O)OC(C)(C)C)C2=O)cc1 (stereo partly drawn)"
target_desc = "NMDAR2B expressing HEK cell membranes (Homo sapiens, UniProt Q05586+Q13224)"
measurement = "> 100 nM"

[[record]]
compound = "C[C@@H](O)[C@@H](C(N)=O)N1CC2(CCC3(CN([C@H](C(N)=O)[C@@H](C)O)C3=O)N2C(=O)OC(C)(C)C)C1=O (stereo partly drawn)"
target_desc = "NMDAR2B expressing HEK cell membranes (Homo sapiens, UniProt Q05586+Q13224)"
measurement = "< 1 nM"

[[record]]
compound = "COc1ccc(CN2CC3(CC(N[C@H](C(=O)O)[C@@H](C)O)CN3C(=O)OC(C)(C)C)C2=O)cc1 (single isomer, unassigned) [CE]"
target_desc = "NMDAR2B expressing HEK cell membranes (Homo sapiens, UniProt Q05586+Q13224)"
measurement = "< 1 nM"

[[record]]
compound = "C[C@@H](O)[C@H](NC(=O)C1CCC2(CNC2=O)N1Cc1ccccc1)C(N)=O (single isomer, unassigned) [AL-1]"
target_desc = "NMDAR2B expressing HEK cell membranes (Homo sapiens, UniProt Q05586+Q13224)"
measurement = "> 100 nM"

[[record]]
compound = "O=C1NCC12CN(Cc1ccccc1)C1(CNC1=O)C2 (single isomer, unassigned) [DR]"
target_desc = "NMDAR2B expressing HEK cell membranes (Homo sapiens, UniProt Q05586+Q13224)"
measurement = "< 1 nM"

[[record]]
compound = "CC(O)C(NCC1CCC2(CN(OCc3ccccc3)C2=O)N1)C(N)=O (single isomer, unassigned)"
target_desc = "NMDAR2B expressing HEK cell membranes (Homo sapiens, UniProt Q05586+Q13224)"
measurement = "< 1 nM"

[[record]]
compound = "CC(C)C(=O)N1C2(CCC13CNC3=O)CNC2=O (single isomer, unassigned) [AI]"
target_desc = "NMDAR2B expressing HEK cell membranes (Homo sapiens, UniProt Q05586+Q13224)"
measurement = "> 100 nM"

[[record]]
compound = "C[C@@H](O)[C@H](NC(=O)C1CCC2(CNC2=O)N1C)C(N)=O (single isomer, unassigned)"
target_desc = "NMDAR2B expressing HEK cell membranes (Homo sapiens, UniProt Q05586+Q13224)"
measurement = "< 1 nM"

[[record]]
compound = "O=C1NCC12CN(Cc1ccccc1)C1(CNC1=O)C2 (single isomer, unassigned) [DO]"
target_desc = "NMDAR2B expressing HEK cell membranes (Homo sapiens, UniProt Q05586+Q13224)"
measurement = "> 100 nM"

[[record]]
compound = "NC(=O)C1CCC2(CNC2=O)N1 (single isomer, unassigned)"
target_desc = "NMDAR2B expressing HEK cell membranes (Homo sapiens, UniProt Q05586+Q13224)"
measurement = "< 1 nM"

[[record]]
compound = "CC(C)CN1C(C(N)=O)CCC12CNC2=O (single isomer, unassigned)"
target_desc = "NMDAR2B expressing HEK cell membranes (Homo sapiens, UniProt Q05586+Q13224)"
measurement = "< 1 nM"

[[record]]
compound = "CNC(=O)C(NCC1CCC2(CNC2=O)N1)C(C)O (single isomer, unassigned)"
target_desc = "NMDAR2B expressing HEK cell membranes (Homo sapiens, UniProt Q05586+Q13224)"
measurement = "< 1 nM"

[[record]]
compound = "CNC(=O)[C@@H](NCC1CCC2(CN(OCc3ccccc3)C2=O)N1C(=O)OC(C)(C)C)[C@@H](C)O (single isomer, unassigned)"
target_desc = "NMDAR2B expressing HEK cell membranes (Homo sapiens, UniProt Q05586+Q13224)"
measurement = "> 100 nM"

[[record]]
compound = "CC(C)C(=O)N1C2(CCC13CNC3=O)CNC2=O (single isomer, unassigned) [AH]"
target_desc = "NMDAR2B expressing HEK cell membranes (Homo sapiens, UniProt Q05586+Q13224)"
measurement = "< 1 nM"

[[record]]
compound = "C[C@@H](O)[C@H](NCC1CCC2(CNC2=O)N1C(=O)OC(C)(C)C)C(N)=O (stereo partly drawn)"
target_desc = "NMDAR2B expressing HEK cell membranes (Homo sapiens, UniProt Q05586+Q13224)"
measurement = "< 1 nM"

[[record]]
compound = "CC(C)C(=O)N1C(C(=O)N[C@H](C(N)=O)[C@@H](C)O)CCC12CNC2=O (single isomer, unassigned) [AR]"
target_desc = "NMDAR2B expressing HEK cell membranes (Homo sapiens, UniProt Q05586+Q13224)"
measurement = "> 100 nM"

[[record]]
compound = "O=C1NCC12CN(Cc1ccccc1)C1(CNC1=O)C2 (single isomer, unassigned) [DP]"
target_desc = "NMDAR2B expressing HEK cell membranes (Homo sapiens, UniProt Q05586+Q13224)"
measurement = "< 1 nM"

